Listing of recorded IC50 by entry.
# System: MG-63
# Measurement notes: Cytotoxicity against human MG63 cells by MTT assay
# Type: functional, cell-based

Compound: COc1cccc2c1C(=O)c1c(O)c3c(c(O)c1C2=O)C[C@@](O)(C(=O)CO)C[C@@H]3O[C@H]1C[C@H](N)[C@H](O)[C@H](C)O1
Measure unit: µM
Result comparator: =
IC50: 3.2
//
Compound: C=C1[C@H]2O[C@]3([C@@H](C)C(=O)O[C@H]3[C@H]1Cl)[C@@H](OC(C)=O)[C@H]1[C@@]3(CO3)[C@H](OC(=O)CC(C)C)C[C@H](OC(C)=O)[C@]1(C)[C@@H](OC(C)=O)[C@H]2OC(C)=O (relative stereo)
Measure unit: µM
Result comparator: <
IC50: 0.3
//
Compound: C=C1[C@H](Cl)[C@@H]2OC(=O)[C@H](C)[C@]23O[C@@H]1[C@H](OC(C)=O)[C@H](OC(C)=O)[C@@]1(C)[C@@H](OC(C)=O)CC[C@]2(CO2)[C@@H]1[C@@H]3OC(C)=O [PRAELOLIDE]
Measure unit: µM
Result comparator: >
IC50: 50.1
//
Compound: C=C1CC[C@H](OC(C)=O)[C@@]2(C)[C@@H](OC(C)=O)C[C@@H](OC(=O)CC(C)C)[C@]3(CO3)[C@@H]2[C@H](OC(C)=O)[C@]2(O)[C@@H](C)C(=O)O[C@H]2[C@H]1Cl [JUNCENOLIDE J]
Measure unit: µM
Result comparator: >
IC50: 46.7
//
Compound: C=C1[C@H](OC(=O)CC(C)C)C[C@H](OC(C)=O)[C@@]2(C)[C@@H](OC(C)=O)[C@@H](OC(=O)CC(C)C)[C@@H](OC(C)=O)[C@]3(CO3)[C@@H]2[C@H](OC(C)=O)[C@]2(O)[C@@H](C)C(=O)O[C@H]2[C@H]1Cl (relative stereo)
Measure unit: µM
Result comparator: =
IC50: 17.4
//
Compound: C=C1[C@H](OC(C)=O)C[C@H](OC(C)=O)[C@@]2(C)[C@@H](OC(=O)CC(C)C)C[C@@H](OC(C)=O)[C@]3(CO3)[C@@H]2[C@H](OC(C)=O)[C@]2(O)[C@@H](C)C(=O)O[C@H]2[C@H]1Cl (relative stereo)
Measure unit: µM
Result comparator: =
IC50: 15.1
//
Compound: C=C1[C@H](OC(C)=O)C[C@H](OC(C)=O)[C@@]2(C)[C@@H](OC(C)=O)C[C@@H](OC(=O)CC(C)C)[C@]3(CO3)[C@@H]2[C@H](OC(C)=O)[C@]2(O)[C@@H](C)C(=O)O[C@H]2[C@H]1Cl (relative stereo)
Measure unit: µM
Result comparator: =
IC50: 18
//
Compound: C=C1[C@H](OC(C)=O)C[C@H](OC(C)=O)[C@@]2(C)[C@@H](OC(C)=O)C[C@@H](OC(C)=O)[C@]3(CO3)[C@@H]2[C@H](OC(C)=O)[C@]2(O)[C@@H](C)C(=O)O[C@H]2[C@H]1Cl (relative stereo)
Measure unit: µM
Result comparator: =
IC50: 20.5
//
Compound: C=C1[C@H]2O[C@]3([C@@H](C)C(=O)O[C@H]3[C@H]1Cl)[C@@H](OC(C)=O)[C@H]1[C@@]3(CO3)[C@H](OC(C)=O)C[C@H](OC(C)=O)[C@]1(C)[C@@H](OC(C)=O)[C@H]2OC(C)=O (relative stereo)
Measure unit: µM
Result comparator: >
IC50: 45.7

====

# Test system: Zymoseptoria tritici (Septoria tritici)
# Measurement notes: Antifungal activity against Septoria tritici at 2 mg/ml by agar diffusion test
# Run parameters: read-out: DIZ
Listing of recorded zone of inhibition at 2000 µg/mL by entry.
Assay readout: zone of inhibition at 2000 µg/mL (mm)

Compound: C=C1[C@H](OC(C)=O)C[C@H](OC(C)=O)[C@@]2(C)[C@@H](OC(=O)CC(C)C)C[C@@H](OC(C)=O)[C@]3(CO3)[C@@H]2[C@H](OC(C)=O)[C@]2(O)[C@@H](C)C(=O)O[C@H]2[C@H]1Cl (relative stereo)
Tested system: Zymoseptoria tritici (Septoria tritici)
Measurement: 9.5

Compound: C=C1[C@H]2O[C@]3([C@@H](C)C(=O)O[C@H]3[C@H]1Cl)[C@@H](OC(C)=O)[C@H]1[C@@]3(CO3)[C@H](OC(=O)CC(C)C)C[C@H](OC(C)=O)[C@]1(C)[C@@H](OC(C)=O)[C@H]2OC(C)=O (relative stereo)
Tested system: Zymoseptoria tritici (Septoria tritici)
Measurement: 13

Compound: C=C1[C@H]2O[C@]3([C@@H](C)C(=O)O[C@H]3[C@H]1Cl)[C@@H](OC(C)=O)[C@H]1[C@@]3(CO3)[C@H](OC(C)=O)C[C@H](OC(C)=O)[C@]1(C)[C@@H](OC(C)=O)[C@H]2OC(C)=O (relative stereo)
Tested system: Zymoseptoria tritici (Septoria tritici)
Measurement: 12

Compound: C=C1[C@H](Cl)[C@@H]2OC(=O)[C@H](C)[C@]23O[C@@H]1[C@H](OC(C)=O)[C@H](OC(C)=O)[C@@]1(C)[C@@H](OC(C)=O)CC[C@]2(CO2)[C@@H]1[C@@H]3OC(C)=O [PRAELOLIDE]
Tested system: Zymoseptoria tritici (Septoria tritici)
Measurement: 15

Compound: C=C1CC[C@H](OC(C)=O)[C@@]2(C)[C@@H](OC(C)=O)C[C@@H](OC(=O)CC(C)C)[C@]3(CO3)[C@@H]2[C@H](OC(C)=O)[C@]2(O)[C@@H](C)C(=O)O[C@H]2[C@H]1Cl [JUNCENOLIDE J]
Tested system: Zymoseptoria tritici (Septoria tritici)
Measurement: 12

Compound: C=C1[C@H](OC(C)=O)C[C@H](OC(C)=O)[C@@]2(C)[C@@H](OC(C)=O)C[C@@H](OC(C)=O)[C@]3(CO3)[C@@H]2[C@H](OC(C)=O)[C@]2(O)[C@@H](C)C(=O)O[C@H]2[C@H]1Cl (relative stereo)
Tested system: Zymoseptoria tritici (Septoria tritici)
Measurement: 13

Compound: C=C1[C@H](OC(C)=O)C[C@H](OC(C)=O)[C@@]2(C)[C@@H](OC(C)=O)C[C@@H](OC(=O)CC(C)C)[C@]3(CO3)[C@@H]2[C@H](OC(C)=O)[C@]2(O)[C@@H](C)C(=O)O[C@H]2[C@H]1Cl (relative stereo)
Tested system: Zymoseptoria tritici (Septoria tritici)
Measurement: 14

Compound: C=C1[C@H](OC(=O)CC(C)C)C[C@H](OC(C)=O)[C@@]2(C)[C@@H](OC(C)=O)[C@@H](OC(=O)CC(C)C)[C@@H](OC(C)=O)[C@]3(CO3)[C@@H]2[C@H](OC(C)=O)[C@]2(O)[C@@H](C)C(=O)O[C@H]2[C@H]1Cl (relative stereo)
Tested system: Zymoseptoria tritici (Septoria tritici)
Measurement: 17
